Values compiled from ChEMBL document CHEMBL1145447.

Recorded measurements of pKi, one per entry
- Target: Delta-type opioid receptor (Homo sapiens)
- Sequence (P41143 whole entry): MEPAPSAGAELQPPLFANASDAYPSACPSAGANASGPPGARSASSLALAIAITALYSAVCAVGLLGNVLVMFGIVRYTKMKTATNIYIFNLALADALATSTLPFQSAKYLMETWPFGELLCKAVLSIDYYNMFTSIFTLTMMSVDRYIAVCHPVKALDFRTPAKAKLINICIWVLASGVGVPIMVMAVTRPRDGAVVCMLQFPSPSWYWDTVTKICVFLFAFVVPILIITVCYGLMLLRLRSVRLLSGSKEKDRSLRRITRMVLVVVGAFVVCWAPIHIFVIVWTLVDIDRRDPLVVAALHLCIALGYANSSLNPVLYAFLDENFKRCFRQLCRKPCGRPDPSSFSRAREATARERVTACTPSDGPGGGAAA
- Protocol: Displacement of [125I]IOXY from human delta opioid receptor expressed in CHO cells
pKi: −log10 of the molar value.
Measured attribute: pKi

Molecule | Measured attribute | Meas value
COC(=O)[C@@H]1C[C@H](OC(C)=O)C(=O)[C@H]2[C@@]1(C)CC[C@H]1C(=O)O[C@H](C3=CC(OC)OC3OC)C[C@]21C (some centres undefined) | pKi | < 5.00
COC(=O)[C@@H]1C[C@H](OC(C)=O)C(=O)[C@H]2[C@@]1(C)CC[C@H]1C(=O)O[C@H]([C@@H]3C[C@@H](OC)O[C@@H]3OC)C[C@]21C | pKi | < 5.00
COC(=O)[C@@H]1C[C@H](O)C(=O)[C@H]2[C@@]1(C)CC[C@H]1C(=O)O[C@H](c3ccoc3)C[C@]21C | pKi | < 5.00
COC(=O)[C@@H]1C[C@H](OC(C)=O)C(=O)[C@H]2[C@@]1(C)CC[C@H]1C(=O)O[C@H](c3nc(C)no3)C[C@]21C | pKi | < 5.00
COC(=O)[C@@H]1C[C@H](OC(C)=O)C(=O)[C@H]2[C@@]1(C)CC[C@H]1C(=O)O[C@H](C3CCOC3)C[C@]21C (some centres undefined) | pKi | < 5.00
COC(=O)[C@@H]1C[C@H](OC(C)=O)C(=O)[C@@H]2[C@@](C)(CCC3CCOC3)[C@H](C(=O)O)CC[C@]21C (some centres undefined) | pKi | < 5.00
COC(=O)[C@@H]1C[C@H](OC(C)=O)C(=O)[C@@H]2[C@@]3(C)C[C@@H]([C@]4(O)[C@@H](OC)O[C@@H](OC)[C@H]4O)CC(=O)[C@@H]3CC[C@]21C | pKi | < 5.00
COC(=O)[C@@H]1C[C@H](OC(C)=O)C(=O)[C@H]2[C@@]1(C)CC[C@H]1C(=O)OC([C@]3(O)[C@@H](OC)O[C@@H](OC)[C@H]3OC(C)=O)C[C@]21C (some centres undefined) | pKi | < 5.00
COC(=O)[C@@H]1C[C@H](OC(C)=O)C(=O)[C@H]2[C@@]1(C)CC[C@H]1C(=O)O[C@H](c3ccoc3Br)C[C@]21C | pKi | 5.12
COC(=O)[C@@H]1C[C@H](OC(C)=O)C(=O)[C@H]2[C@@]1(C)CC[C@H]1C(=O)OC([C@]3(O)[C@H](OC)O[C@H](OC)[C@H]3OC(C)=O)C[C@]21C (some centres undefined) | pKi | < 5.00
COC(=O)[C@@H]1C[C@H](OC(C)=O)C(=O)[C@H]2[C@@]1(C)CC[C@H]1C(=O)O[C@H]([C@]3(O)[C@H](OC)O[C@H](OC)[C@H]3O)C[C@]21C | pKi | < 5.00
COC(=O)[C@@H]1C[C@H](OC(C)=O)C(=O)[C@H]2[C@@]1(C)CC[C@H]1C(=O)O[C@H](C3=C[C@@H](OC)O[C@@H]3OC)C[C@]21C | pKi | < 5.00
COC(=O)[C@@H]1C[C@H](OC(C)=O)C(=O)[C@H]2[C@@]1(C)CC[C@H]1C(=O)O[C@H](C3=NCCO3)C[C@]21C | pKi | < 5.00
COC(=O)[C@@H]1C[C@H](OC(C)=O)C(=O)[C@@H]2[C@@]3(C)C[C@@H](c4nc(C)no4)OC(=O)[C@H]3CC[C@]21C | pKi | < 5.00
COC(=O)[C@@H]1C[C@H](OC(C)=O)C(=O)[C@H]2[C@@]1(C)CC[C@H]1C(=O)O[C@H](C3CC(OC)OC3OC)C[C@]21C (some centres undefined) | pKi | < 5.00
COC(=O)[C@@H]1C[C@H](OC(C)=O)C(=O)[C@H]2[C@@]1(C)CC[C@H]1C(=O)OCC[C@]21C | pKi | < 5.00
COC(=O)[C@@H]1C[C@H](OC(C)=O)C(=O)[C@H]2[C@@]1(C)CC[C@H]1C(=O)O[C@H](C3=C[C@@H](OC)O[C@H]3OC)C[C@]21C | pKi | < 5.00
COC(=O)[C@@H]1C[C@H](OC(C)=O)C(=O)[C@H]2[C@@]1(C)CC[C@H]1C(=O)O[C@H]([C@@H]3CCOC3)C[C@]21C | pKi | < 5.00
COC(=O)[C@@H]1C[C@H](OC(C)=O)C(=O)[C@H]2[C@@]1(C)CC[C@H]1C(=O)O[C@H]([C@@H]3C[C@@H](OC)O[C@H]3OC)C[C@]21C | pKi | < 5.00
